- Test system: Nucleic Acid
- protocol: Binding constant for the sequence d(CGGAATTCGCG)2
- Parameters: unit not given here
We begin with a simple list: items and their reported K.
Enter a number only.

>>> print(df.to_string())
                                     smiles  numeric_value
0  c1cc2[nH]c(CCCCc3nc4cc(C5=NCCN5)ccc4[nH]3)nc2cc1C1=NCCN1        5.2e+06

(Q) Provide K, system Nucleic Acid, entry `N=C(N)c1ccc(-c2cc3ccc(C(=N)N)cc3[nH]2)cc1`
(A) 4.5e+08

(Q) Provide K, system Nucleic Acid, entry `N=C(N)c1ccc2nc(Cc3nc4ccc(C(=N)N)cc4[nH]3)[nH]c2c1`
(A) 930000

(Q) Provide K, system Nucleic Acid, entry `N=C(N)c1ccc(OCCCCCOc2ccc(C(=N)N)cc2)cc1`
(A) 2.3e+06

* * *

- Test system: Nucleic Acid
- protocol: Thermal melting temperature for (dCGCGAATTCGCG)2 at a concentration of 3*10e-6 M base pairs at a ratio of one compound per oligomer duplex
measure_name: ΔTm

Example results:
>>> print(df.to_string())
                                     smiles  result
0  c1cc2[nH]c(Cc3nc4cc(C5=NCCN5)ccc4[nH]3)nc2cc1C1=NCCN1     2.8
1  c1cc2[nH]c(CCCCc3nc4cc(C5=NCCN5)ccc4[nH]3)nc2cc1C1=NCCN1     7.1
2  N=C(N)c1ccc2[nH]c(CCc3nc4cc(C(=N)N)ccc4[nH]3)nc2c1    15.9
3  c1cc2[nH]c(CCc3nc4cc(C5=NCCN5)ccc4[nH]3)nc2cc1C1=NCCN1    16.4
4  N=C(N)c1ccc2[nH]c(CCCCc3nc4cc(C(=N)N)ccc4[nH]3)nc2c1      10

(Q) Provide ΔTm, system Nucleic Acid, entry `N=C(N)c1ccc(-c2cc3ccc(C(=N)N)cc3[nH]2)cc1`
(A) 22.2

* * *

We begin with a simple list: items and their reported ΔTm.
- System: Nucleic Acid
- protocol: Thermal melting temperature determined for (dG-C)4 at a concentration of 3*10e-6 M base pairs at a ratio of 0.6 compound per base pair
- Format: nucleic-acid assay
Enter a number only.

Example results:
                                     smiles  numeric_value
0  c1cc2[nH]c(CCCCc3nc4cc(C5=NCCN5)ccc4[nH]3)nc2cc1C1=NCCN1            0.5
1  c1cc2[nH]c(-c3ccc4[nH]c(CCc5nc6cc(-c7nc8cc(C9=NCCN9)ccc8[nH]7)ccc6[nH]5)nc4c3)nc2cc1C1=NCCN1              0
2  N=C(N)c1ccc2[nH]c(/C=C/c3nc4cc(C(=N)N)ccc4[nH]3)nc2c1           -1.5

Please examine the following record next.
(Q) For the compound `c1cc2[nH]c(CCc3nc4cc(C5=NCCN5)ccc4[nH]3)nc2cc1C1=NCCN1` , report ΔTm.
(A) 0.7

* * *

- System: Nucleic Acid
- protocol: Thermal melting temperature determined for (dG-C)4 at a concentration of 3*10e-6 M base pairs at a ratio of 0.6 compound per base pair
- Type: nucleic-acid assay
We begin with a simple list: items and their reported ΔTm.

Example results:
In [3]: df
Out[3]:
                                     smiles  measure_name  result
0  c1cc2[nH]c(Cc3nc4cc(C5=NCCN5)ccc4[nH]3)nc2cc1C1=NCCN1           ΔTm       0
1  N=C(N)c1ccc2[nH]c(-c3ccc4[nH]c(CCCCc5nc6cc(-c7nc8cc(C(=N)N)ccc8[nH]7)ccc6[nH]5)nc4c3)nc2c1           ΔTm       0
2   N=C(N)c1ccc(OCCCCCOc2ccc(C(=N)N)cc2)cc1           ΔTm       0
3  c1cc2[nH]c(-c3ccc4[nH]c(CCCCc5nc6cc(-c7nc8cc(C9=NCCN9)ccc8[nH]7)ccc6[nH]5)nc4c3)nc2cc1C1=NCCN1           ΔTm       0

Please examine the following record next.
(Q) Provide ΔTm, system Nucleic Acid, entry `N=C(N)c1ccc2[nH]c(CCc3nc4cc(C(=N)N)ccc4[nH]3)nc2c1`
(A) 0.75

* * *

- Tested on: Nucleic Acid
- protocol: Thermal melting temperature for poly(A).poly(U) at a concentration of 5*10e-5) M base pairs at a ratio of 0.6 compound per base pair
- Assay type: nucleic-acid assay
We begin with a simple list: items and their reported ΔTm.

Example results:
>>> df
                                     smiles  system_under_test  result
0  N=C(N)c1ccc2[nH]c(/C=C/c3nc4cc(C(=N)N)ccc4[nH]3)nc2c1       Nucleic Acid       0
1  N=C(N)c1ccc2[nH]c(CCc3nc4cc(C(=N)N)ccc4[nH]3)nc2c1       Nucleic Acid    -1.1
2   N=C(N)c1ccc(OCCCCCOc2ccc(C(=N)N)cc2)cc1       Nucleic Acid       0
3  N=C(N)c1ccc(-c2cc3ccc(C(=N)N)cc3[nH]2)cc1       Nucleic Acid     3.9
4  c1cc2[nH]c(-c3ccc4[nH]c(CCc5nc6cc(-c7nc8cc(C9=NCCN9)ccc8[nH]7)ccc6[nH]5)nc4c3)nc2cc1C1=NCCN1       Nucleic Acid       0

(Q) For the molecule `c1cc2[nH]c(Cc3nc4cc(C5=NCCN5)ccc4[nH]3)nc2cc1C1=NCCN1` , report ΔTm.
(A) -0.6

(Q) For the molecule `N=C(N)c1ccc2[nH]c(CCCCc3nc4cc(C(=N)N)ccc4[nH]3)nc2c1` , report ΔTm.
(A) -0.6

(Q) For the molecule `c1cc2[nH]c(CCCCc3nc4cc(C5=NCCN5)ccc4[nH]3)nc2cc1C1=NCCN1` , report ΔTm.
(A) -1.5

(Q) For the molecule `c1cc2[nH]c(-c3ccc4[nH]c(CCCCc5nc6cc(-c7nc8cc(C9=NCCN9)ccc8[nH]7)ccc6[nH]5)nc4c3)nc2cc1C1=NCCN1` , report ΔTm.
(A) 0

(Q) For the molecule `c1cc2[nH]c(CCc3nc4cc(C5=NCCN5)ccc4[nH]3)nc2cc1C1=NCCN1` , report ΔTm.
(A) 0.9

(Q) For the molecule `N=C(N)c1ccc2nc(Cc3nc4ccc(C(=N)N)cc4[nH]3)[nH]c2c1` , report ΔTm.
(A) -0.8

(Q) For the molecule `N=C(N)c1ccc2[nH]c(-c3ccc4[nH]c(CCCCc5nc6cc(-c7nc8cc(C(=N)N)ccc8[nH]7)ccc6[nH]5)nc4c3)nc2c1` , report ΔTm.
(A) 0

* * *

- Test system: Nucleic Acid
- protocol: Thermal melting temperature determined for (dG-C)4 at a concentration of 3*10e-6 M base pairs at a ratio of 0.6 compound per base pair
- Assay type: nucleic-acid assay
measure_name: ΔTm
Enter a number only.

In [3]: df
Out[3]:
                                     smiles  numeric_value
0  N=C(N)c1ccc2[nH]c(CCCCc3nc4cc(C(=N)N)ccc4[nH]3)nc2c1            0.5

(Q) For the compound `N=C(N)c1ccc(-c2cc3ccc(C(=N)N)cc3[nH]2)cc1` , report ΔTm.
(A) 2.5

(Q) For the compound `N=C(N)c1ccc2nc(Cc3nc4ccc(C(=N)N)cc4[nH]3)[nH]c2c1` , report ΔTm.
(A) 0

* * *

- Tested on: Nucleic Acid
- protocol: Thermal melting temperature for (dCGCGAATTCGCG)2 at a concentration of 3*10e-6 M base pairs at a ratio of one compound per oligomer duplex
measure_name: ΔTm
Enter a number only.

Example results:
                                     smiles  numeric_value
0   N=C(N)c1ccc(OCCCCCOc2ccc(C(=N)N)cc2)cc1            4.8
1  N=C(N)c1ccc2nc(Cc3nc4ccc(C(=N)N)cc4[nH]3)[nH]c2c1            2.8

Please examine the following record next.
(Q) For the compound `c1cc2[nH]c(-c3ccc4[nH]c(CCc5nc6cc(-c7nc8cc(C9=NCCN9)ccc8[nH]7)ccc6[nH]5)nc4c3)nc2cc1C1=NCCN1` , report ΔTm.
(A) 28.5

* * *

We begin with a simple list: items and their reported ΔTm.
- System: Nucleic Acid
- protocol: Thermal melting temperature determined for poly(dA).poly(dT) at a concentration of 5*10e-5) M base pairs at a ratio of 0.6 compound per base pair
- Assay type: nucleic-acid assay
Enter a number only.

In [3]: df
Out[3]:
                                     smiles  numeric_value
0  N=C(N)c1ccc2[nH]c(CCCCc3nc4cc(C(=N)N)ccc4[nH]3)nc2c1           24.4
1  N=C(N)c1ccc2nc(Cc3nc4ccc(C(=N)N)cc4[nH]3)[nH]c2c1            4.9
2  c1cc2[nH]c(CCCCc3nc4cc(C5=NCCN5)ccc4[nH]3)nc2cc1C1=NCCN1           25.5
3  c1cc2[nH]c(Cc3nc4cc(C5=NCCN5)ccc4[nH]3)nc2cc1C1=NCCN1            5.7

(Q) For the compound `N=C(N)c1ccc(OCCCCCOc2ccc(C(=N)N)cc2)cc1` , report ΔTm.
(A) 12.8

Data provenance is ChEMBL document CHEMBL1129541.
